Attribution: patent US20260008760A1

Assay target: human DPP1 enzyme (Homo sapiens)
Assay name: Human DPP1 Enzyme IC50 Assay
Type: biochemical
Set-up: was first proteolytically processed into its mature form using recombinant human cathepsin L; purchased R&D Systems
Experimental parameters: activated recombinant human DPP1, 400 μM H-Gly-Arg-AMC, 10 minutes pre-incubation at 37° C., pH 6.0; average of n runs; read-out: Avg. IC50 (Human DPP1 enzyme IC50 value ranges)
Protocol: Example 97. Human DPP1 Enzyme IC50 Assay Recombinant human DPP1 enzyme (R&D Systems; Minneapolis, MN) was first proteolytically processed into its mature form using recombinant human cathepsin L (R&D Systems) in a buffer consisting of 20 mM citric acid pH 4.5, 150 mM NaCl, 1 mM EDTA and 10 mM DTT. […] Substrate cleavage was measured for 90 minutes at 37° C., with fluorescence at Excitation/Emission 350/450 nm measured every 5 minutes. […]
Sequence (P53634 25-134 limits assumed): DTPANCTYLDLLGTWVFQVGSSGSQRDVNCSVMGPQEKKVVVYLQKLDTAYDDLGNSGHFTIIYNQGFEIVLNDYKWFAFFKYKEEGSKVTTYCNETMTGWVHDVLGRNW
Sequence (P53634 231-394 limits assumed): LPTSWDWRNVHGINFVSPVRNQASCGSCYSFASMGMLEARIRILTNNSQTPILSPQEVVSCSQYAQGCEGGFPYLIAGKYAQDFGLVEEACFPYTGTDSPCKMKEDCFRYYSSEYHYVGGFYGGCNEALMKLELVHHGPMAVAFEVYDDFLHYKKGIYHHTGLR
Sequence (P53634 395-463 limits assumed): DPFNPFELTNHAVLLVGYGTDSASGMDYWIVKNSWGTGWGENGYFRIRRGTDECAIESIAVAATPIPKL
Quantity kind: IC50

[[record]]
compound = "C[C@@H]1NC[C@@H](C(=O)N[C@H](C#N)Cc2cnc(-c3ccc4c(F)nn(C)c4c3)s2)OC[C@@H]1O [Compound A171]"
result = "> 15 nM"

[[record]]
compound = "Cc1csc(-c2ccc(C[C@@H](C#N)NC(=O)[C@@H]3CNCCCO3)cc2)n1 [Compound 11]"
result = "> 15 nM"

[[record]]
compound = "N#C[C@H](Cc1ccc(-c2cc3n(c2)CCCNC3=O)cc1)NC(=O)[C@@H]1CNCCCO1 [Compound A12]"
result = "> 15 nM"

[[record]]
compound = "Cn1c(=O)oc2ccc3c(c21)COc1cc(C[C@@H](C#N)NC(=O)[C@@H]2CNCCCO2)c(F)cc1-3 [Compound C2-A]"
result = "> 15 nM"

[[record]]
compound = "N#C[C@@H](Cc1cc2c(cc1F)-c1cc(C3COC3)c(F)cc1CO2)NC(=O)[C@@H]1CNCCCCO1 [Compound B10-A]"
result = "> 15 nM"


Need IC50, item CN1CCC2(CCc3cc4c(cc32)-c2cc(F)c(CC(C#N)NC(=O)[C@@H]3CNCCCO3)cc2OC4)CC1 (mixture of isomers) [Compound C3] < 5 nM

Another compound to check: Cc1ncc(C)n2cc(-c3ccc(C[C@@H](C#N)NC(=O)[C@@H]4CNCCCO4)cc3)cc12 [Compound A63] > 15 nM

###

Assay target: human DPP1 enzyme (Homo sapiens, UniProt P53634)
Assay name: Human DPP1 Enzyme Single-Point Percent Inhibition Testing (HL-60 lysate)
Type: biochemical
Parameters: A crude lysate of HL-60 cells (ATCC; Manassas, VA) was used as a source of human DPP1 enzyme; host or cells: HL-60 cells (crude lysate)
Experimental parameters: final compound concentration of 10 nM, 400 μM H-Gly-Arg-AMC, n = 1
Sequence (P53634 25-463): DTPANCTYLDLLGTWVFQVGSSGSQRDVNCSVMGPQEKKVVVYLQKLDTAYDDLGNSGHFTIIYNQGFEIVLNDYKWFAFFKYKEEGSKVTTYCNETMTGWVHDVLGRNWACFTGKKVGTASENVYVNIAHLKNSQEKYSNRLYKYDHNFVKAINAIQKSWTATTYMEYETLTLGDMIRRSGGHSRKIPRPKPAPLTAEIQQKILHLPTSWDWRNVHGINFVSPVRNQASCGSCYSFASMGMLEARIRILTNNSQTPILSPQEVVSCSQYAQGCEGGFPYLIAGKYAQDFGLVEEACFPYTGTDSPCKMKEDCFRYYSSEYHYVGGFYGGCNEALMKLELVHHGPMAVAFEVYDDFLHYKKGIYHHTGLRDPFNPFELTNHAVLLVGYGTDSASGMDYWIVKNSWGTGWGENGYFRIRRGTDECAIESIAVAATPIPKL
// reported inhibition at 0.01 µM for each item listed

In the examples that follow, each entry is paired with its recorded inhibition at 0.01 µM.
[[record]]
molecule = "N#CC(Cc1cc2c(cc1F)-c1cc(C3COC3)c(F)cc1CO2)NC(=O)[C@@H]1CNCCCO1 (stereo partly shown)"
quantity_kind = "inhibition at 0.01 µM"
result = "40 to 66.7%"

[[record]]
molecule = "CN1CCC(n2ncc3ccc(-c4ccc(C[C@@H](C#N)NC(=O)[C@@H]5CNCCCCO5)c(F)c4)cc32)CC1"
quantity_kind = "inhibition at 0.01 µM"
result = "≥ 66.7%"

[[record]]
molecule = "Cn1c(=O)oc2cc3c(cc21)-c1cc(F)c(C[C@@H](C#N)NC(=O)[C@@H]2CNCCCCO2)cc1SC3"
quantity_kind = "inhibition at 0.01 µM"
result = "≥ 66.7%"

[[record]]
molecule = "N#Cc1ccc2c(c1)CSc1cc(C[C@@H](C#N)NC(=O)[C@@H]3CNCCCCO3)c(F)cc1-2"
quantity_kind = "inhibition at 0.01 µM"
result = "40 to 66.7%"

[[record]]
molecule = "CO[C@@H]1CCNC[C@@H](C(=O)N[C@H](C#N)Cc2ccc(-c3cnc4c(n3)CCCC4)cc2F)OC1"
quantity_kind = "inhibition at 0.01 µM"
result = "≥ 66.7%"

[[record]]
molecule = "N#C[C@H](Cc1ccc(-c2ccn3cnnc3c2)cc1)NC(=O)[C@@H]1CNCCCCO1"
quantity_kind = "inhibition at 0.01 µM"
result = "≤ 40%"

[[record]]
molecule = "Cn1nnc2ccc(-c3ccc(C[C@@H](C#N)NC(=O)[C@@H]4CNCCCCO4)cc3)cc21"
quantity_kind = "inhibition at 0.01 µM"
result = "≤ 40%"

[[record]]
molecule = "CO[C@H]1CCO[C@H](C(=O)NC(C#N)Cc2cc3c(cc2F)-c2cc(C#N)ccc2CO3)CNC1 (stereo partly shown)"
quantity_kind = "inhibition at 0.01 µM"
result = "40 to 66.7%"


Hi! What's the reported inhibition at 0.01 µM for `N#C[C@H](Cc1ccc(-c2cnc3c(n2)CCCC3)cc1F)NC(=O)[C@@H]1CNCCCCO1` on human DPP1 enzyme (Homo sapiens, UniProt P53634)? ≤ 40%

Another molecule to check: `CO[C@H]1CCO[C@H](C(=O)N[C@H](C#N)Cc2ccc(-c3cc4c(C)ncc(C)n4c3)cc2)CNC1` 40 to 66.7%

Another molecule to check: `CN1CCN(Cc2ccc(-c3ccc(C[C@@H](C#N)NC(=O)[C@@H]4CNCCCCO4)c(F)c3)cc2)CC1` ≤ 40%

Another molecule to check: `N#C[C@H](Cc1ccc(-c2ccc3c(n2)CCCN3)cc1)NC(=O)[C@@H]1CNCCCCO1` ≤ 40%

Another molecule to check: `CN1CC[C@]2(C1)C(=O)OCc1ccc(-c3ccc(C[C@@H](C#N)NC(=O)[C@@H]4CNCCCO4)cc3)cc12` 40 to 66.7%

Another molecule to check: CN1CCCC2(C1)C(=O)N(C)c1ccc(-c3ccc(C[C@@H](C#N)NC(=O)[C@@H]4CNCCCO4)c(F)c3)cc12 (stereo partly shown) 40 to 66.7%

Another molecule to check: CN1CCC2(C1)OC(=O)c1ccc(-c3ccc(C[C@@H](C#N)NC(=O)[C@@H]4CNCCCCO4)c(F)c3)cc12 (stereo partly shown) 40 to 66.7%

Another molecule to check: `CCN1C(=O)Cc2ccc(-c3ccc(C[C@@H](C#N)NC(=O)[C@@H]4CNC[C@@H](OC)CCO4)cc3)cc21` 40 to 66.7%

Another molecule to check: `CO[C@@H]1CCNC[C@@H](C(=O)N[C@H](C#N)Cc2cc3c(cc2F)-c2ccc(C#N)cc2CO3)OC1` ≥ 66.7%

###

// reported inhibition at 0.005 µM for each item listed
Assay target: DPP1 in HL-60 cells (Homo sapiens, UniProt P53634)
Sequence (P53634 25-463): as above
Assay name: DPP1 Cell Single-Point Percent Inhibition Testing
Format: cell-based
Set-up: host or cells: HL-60 cells
Experimental parameters: final compound concentration 5 nM, n = 1

[[record]]
molecule = "CO[C@H]1CCO[C@H](C(=O)N[C@H](C#N)Cc2ccc(-c3ccc4c(c3)C3(CC4)CCN(C)CC3)cc2)CNC1"
quantity_kind = "inhibition at 0.005 µM"
result = "≤ 76.5%"


Hi! What's the reported inhibition at 0.005 µM for `CO[C@@H]1CCNC[C@@H](C(=O)N[C@H](C#N)Cc2ccc(-c3cc4c(C)nc(C)c(C)n4c3)cc2)OC1` on DPP1 in HL-60 cells (Homo sapiens, UniProt P53634)? ≥ 93.9%

Another molecule to check: COC1CNC[C@@H](C(=O)N[C@H](C#N)Cc2ccc(-c3ccc4cnn(C5CCN(C)CC5)c4c3)cc2)OC1 (stereo partly shown) ≤ 76.5%

Another molecule to check: `CO[C@@H]1CCNC[C@@H](C(=O)N[C@H](C#N)Cc2ccc(-c3ccc4c(n3)CCCN4)cc2)OC1` ≤ 76.5%

Another molecule to check: C[C@@H]1NC[C@@H](C(=O)NC(C#N)Cc2cc3c(cc2F)-c2cc4c(cc2CO3)oc(=O)n4C)OC[C@H]1O (stereo partly shown) ≤ 76.5%

Another molecule to check: `CN1CCC(n2ncc3ccc(-c4ccc(C[C@@H](C#N)NC(=O)[C@@H]5CNCCCCO5)cc4)cc32)CC1` ≤ 76.5%

###

Assay target: UniProtKB P53634
Assay name: Human DPP1 Enzyme Single-Point Percent Inhibition Testing (HL-60 lysate)
Type: biochemical
Parameters: A crude lysate of HL-60 cells (ATCC; Manassas, VA) was used as a source of human DPP1 enzyme; host or cells: HL-60 cells (crude lysate)
Experimental parameters: final compound concentration of 10 nM, 400 μM H-Gly-Arg-AMC, n = 1
Quantity kind: inhibition at 0.01 µM

In the examples that follow, each entry is paired with its recorded inhibition at 0.01 µM.
[[record]]
structure_as_smiles = "CO[C@@H]1CCNC[C@@H](C(=O)N[C@H](C#N)Cc2ccc(-c3ccc4c(c3)C3(CCN(C5COC5)CC3)OC4)cc2)OC1"
assay_target = "UniProtKB P53634"
quantity_kind = "inhibition at 0.01 µM"
result = "≥ 66.7%"

[[record]]
structure_as_smiles = "Cc1nc(C)c2cc(-c3ccc(C[C@@H](C#N)NC(=O)[C@@H]4CN[C@@H](C)[C@@H](O)CO4)cc3)cn2c1C"
assay_target = "UniProtKB P53634"
quantity_kind = "inhibition at 0.01 µM"
result = "≤ 40%"


Attention now shifts to the item below.
Need inhibition at 0.01 µM, item `Cc1cn2cc(-c3ccc(C[C@@H](C#N)NC(=O)[C@@H]4CN[C@@H](C)[C@@H](O)CO4)c(F)c3)cc2c(C)n1` ≤ 40%
